Overview of recorded pEC50 for various molecules
Target: mouse TRPM8 (Mus musculus)
Sequence (Q8R4D5 whole entry): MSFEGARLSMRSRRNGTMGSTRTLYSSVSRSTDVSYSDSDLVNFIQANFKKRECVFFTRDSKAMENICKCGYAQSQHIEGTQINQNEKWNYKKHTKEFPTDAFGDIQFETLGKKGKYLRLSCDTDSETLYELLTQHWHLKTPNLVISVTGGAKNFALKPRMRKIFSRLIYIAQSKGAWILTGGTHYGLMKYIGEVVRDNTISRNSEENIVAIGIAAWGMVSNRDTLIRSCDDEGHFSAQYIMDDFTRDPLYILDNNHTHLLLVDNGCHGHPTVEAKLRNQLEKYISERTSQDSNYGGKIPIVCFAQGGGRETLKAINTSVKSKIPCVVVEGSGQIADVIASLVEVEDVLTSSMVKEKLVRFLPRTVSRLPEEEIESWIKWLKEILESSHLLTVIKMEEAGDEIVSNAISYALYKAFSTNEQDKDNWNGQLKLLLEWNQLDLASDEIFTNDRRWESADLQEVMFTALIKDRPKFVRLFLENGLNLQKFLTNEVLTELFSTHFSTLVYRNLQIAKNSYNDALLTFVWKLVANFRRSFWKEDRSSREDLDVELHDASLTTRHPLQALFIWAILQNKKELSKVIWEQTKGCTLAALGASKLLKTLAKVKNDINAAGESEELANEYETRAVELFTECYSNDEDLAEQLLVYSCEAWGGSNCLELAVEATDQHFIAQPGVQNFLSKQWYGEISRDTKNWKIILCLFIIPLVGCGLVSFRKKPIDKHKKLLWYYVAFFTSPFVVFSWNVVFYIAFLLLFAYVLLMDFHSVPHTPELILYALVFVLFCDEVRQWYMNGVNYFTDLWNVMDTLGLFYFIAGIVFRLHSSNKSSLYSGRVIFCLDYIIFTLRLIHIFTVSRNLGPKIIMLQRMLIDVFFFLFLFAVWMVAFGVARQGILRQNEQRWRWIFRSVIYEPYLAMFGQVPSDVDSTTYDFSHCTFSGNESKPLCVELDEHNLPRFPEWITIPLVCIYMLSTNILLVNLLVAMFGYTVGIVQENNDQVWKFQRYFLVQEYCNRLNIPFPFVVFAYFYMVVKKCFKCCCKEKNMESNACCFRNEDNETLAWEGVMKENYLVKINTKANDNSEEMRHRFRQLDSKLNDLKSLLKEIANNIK
Test: Whole-cell patch-clamp recordings of wild-type TRPM8 in transfected HEK293T cells
Details: WT TRPM8, whole-cell, +80 mV, ~25°C
pEC50: −log10 of the molar value.

>  <molecule>
CC(C)[C@@H]1CC[C@@H](C)C[C@H]1O [(−)-menthol]

>  <pEC50>
4.20

$$$$
>  <molecule>
CC(C)[C@@H]1CC[C@@H](C)C[C@@H]1O [(+)-neomenthol]

>  <pEC50>
3.69

$$$$
